All values here come from patent US10301295B2.

Test system: Alopecurus myosuroides (ALOMY)
EXPERIMENT NOTES: Glasshouse assay for herbicidal activity, pre-/post-emergence (percentage phytotoxicity)
Format: in vivo
COND: Alopecurus myosuroides, 360 h; Rate 250 g/ha; post-emergence; visual assessment 15 DAA; 100%=total damage, 0%=no damage; read-out: Post-emergence herbicidal activity (percentage phytotoxicity), ALOMY POST
// reported pest or weed control at 250 g/ha per item

[
  {
    "COMPOUND": "CC#Cc1cc(C)c(C2C(=O)CC(CCNC(=O)Nc3ccccn3)C2=O)c(C)c1 (centres unmarked)",
    "pest or weed control at 250 g/ha": "90%"
  },
  {
    "COMPOUND": "Cc1cc(C)c(C2C(=O)CC(CCNC(=O)NC(=O)c3cccc(C(F)(F)F)c3)C2=O)c(C)c1 (centres unmarked)",
    "pest or weed control at 250 g/ha": "70%"
  },
  {
    "COMPOUND": "Cc1cc(C)c(C2C(=O)CC(CCNC(=O)NC(=O)c3ccc(C(F)(F)F)cc3)C2=O)c(C)c1 (centres unmarked)",
    "pest or weed control at 250 g/ha": "30%"
  },
  {
    "COMPOUND": "Cc1cc(C)c(C2C(=O)CC(CCNC(=O)NO)C2=O)c(C)c1 (centres unmarked)",
    "pest or weed control at 250 g/ha": "10%"
  },
  {
    "COMPOUND": "Cc1cc(C)c(C2C(=O)CC(CCNc3ccc([N+](=O)[O-])cn3)C2=O)c(C)c1 (centres unmarked)",
    "pest or weed control at 250 g/ha": "90%"
  },
  {
    "COMPOUND": "CONC(=O)NCCC1CC(=O)C(c2c(C)cc(C)cc2C)C1=O (centres unmarked)",
    "pest or weed control at 250 g/ha": "80%"
  },
  {
    "COMPOUND": "CCS(=O)(=O)NCCC1CC(=O)C(c2c(C)cc(C)cc2C)C1=O (centres unmarked)",
    "pest or weed control at 250 g/ha": "80%"
  },
  {
    "COMPOUND": "Cc1cc(-n2cc(Cl)cn2)cc(C)c1C1C(=O)CC(CCNS(=O)(=O)c2ccc(Cl)cc2)C1=O (centres unmarked)",
    "pest or weed control at 250 g/ha": "0%"
  }
]

----------
Test system: Alopecurus myosuroides (ALOMY)
EXPERIMENT NOTES: Glasshouse assay for herbicidal activity, pre-/post-emergence (percentage phytotoxicity)
Assay type: in vivo
COND: Alopecurus myosuroides, 360 h; Rate 250 g/ha; post-emergence; visual assessment 15 DAA; 100%=total damage, 0%=no damage; read-out: Post-emergence herbicidal activity (percentage phytotoxicity), ALOMY POST
# note: exactly 90% is not below, so it is F; use T for pest or weed control at 250 g/ha strictly under it

[
  {
    "MOLECULE": "Cc1cc(C)c(C2C(=O)CC(CCNC(=O)NC(=O)c3ccc(F)c(F)c3)C2=O)c(C)c1 (stereo not shown)",
    "LABEL VALUE": "T"
  },
  {
    "MOLECULE": "Cc1cc(C)c(C2C(=O)CC(CCNC(=O)NC(=O)c3ccc(OC(F)(F)F)cc3)C2=O)c(C)c1 (stereo not shown)",
    "LABEL VALUE": "T"
  },
  {
    "MOLECULE": "Cc1cc(C)c(C2C(=O)CC(CCNC(=O)Nc3cc(C(F)(F)F)ccn3)C2=O)c(C)c1.Cl (stereo not shown)",
    "LABEL VALUE": "T"
  },
  {
    "MOLECULE": "Cc1cc(-n2cc(Cl)cn2)cc(C)c1C1C(=O)CC(CCNc2ccc([N+](=O)[O-])cn2)C1=O (stereo not shown)",
    "LABEL VALUE": "T"
  },
  {
    "MOLECULE": "Cc1cc(-c2ncc(F)cn2)cc(C)c1C1C(=O)CC(CCNC(=O)C2=NOC(C)(C)C2)C1=O (stereo not shown)",
    "LABEL VALUE": "F"
  },
  {
    "MOLECULE": "Cc1cc(C)c(C2C(=O)CC(CCNS(=O)(=O)c3ccccc3C(F)(F)F)C2=O)c(C)c1 (stereo not shown)",
    "LABEL VALUE": "T"
  },
  {
    "MOLECULE": "Cc1cc(C)c(C2C(=O)CC(CCNS(=O)(=O)c3ccc(Cl)cc3)C2=O)c(C)c1 (stereo not shown)",
    "LABEL VALUE": "T"
  },
  {
    "MOLECULE": "CON=C(C)C(=O)NCCC1CC(=O)C(c2c(C)cc(C)cc2C)C1=O (stereo not shown)",
    "LABEL VALUE": "T"
  },
  {
    "MOLECULE": "Cc1cc(-n2cc(Cl)cn2)cc(C)c1C1C(=O)CC(CCNC(=O)N(C)c2ccccn2)C1=O (stereo not shown)",
    "LABEL VALUE": "T"
  },
  {
    "MOLECULE": "Cc1cc(C)c(C2C(=O)CC(CCNS(=O)(=O)c3ccc(F)cc3)C2=O)c(C)c1 (stereo not shown)",
    "LABEL VALUE": "T"
  },
  {
    "MOLECULE": "C#Cc1cc(C)cc(C)c1C1C(=O)CC(CCNC(=O)C2=NOC(C)(C)C2)C1=O (stereo not shown)",
    "LABEL VALUE": "F"
  }
]
